- Target system: FN1
- Assay info: ELISA
Task for the reader: assign each of the following binders its reported absorbance.
Please give the numeric answer without any surrounding text.

Kindly note the recorded absorbance for KPEP11_13 (antibody, V domains shown, Rabbit IgG; also called anti-human EphA4 rabbit monoclonal antibody KPEP11_13) VH: QSLEESGGRLVTPGTPLTLTCTVSGFSLSSYHMSWVRQAPGKGLEWIGIIYRSGNTYYANWAKGRFTISKTSTTVDLKITSPTTEDTATYFCARESSTFYGMDLWGPGTLVTVSS VL: YVMMTQTPSSVSAAVGGTVTINCQASQSVYGNNELAWYQQKPGQRPKLLIYRASTLASGVPSRFKGSGSGTEFTLTISDLECADAATYYCLGYKSDDYTFGGGTKVEIKG , which is 0.318

Kindly note the recorded absorbance for KPEP11_01 (antibody, V domains shown, also called anti-human EphA4 rabbit monoclonal antibody KPEP11_01) VH: QSVEESGGRLVTPGTPLTLTCTVSGFSLSSYHMSWVRQAPGKGLEWIGIIYRSGNTYSANWAKGRFTISKTSTTVDLKITSPTTEDTATYFCARESSTFYGMDLWGPGTLVTVSS VL: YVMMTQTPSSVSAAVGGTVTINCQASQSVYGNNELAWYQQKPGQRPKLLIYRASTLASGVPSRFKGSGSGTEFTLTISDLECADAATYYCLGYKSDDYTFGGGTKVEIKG , which is 0.228

Kindly note the recorded absorbance for KPEP11_18 (antibody, V domains shown, Rabbit IgG/kappa; Used coated or HRP-labeled in the sandwich ELISAs; also called anti-human EphA4 rabbit monoclonal antibody KPEP11_18; HRP-labeled KPEP11_18) VH: QSLEESGGRLVTPGTPLTLTCTISGFSLSSFYINWVRQAPGRGLEWIGIIYPDIDATDYASWVKGRFTISKTSTTVDLKITSPTTEDTATYFCARSDVDYYTTRLDLWGQGTLVTVSS VL: DPMMTQTASPVSAAVGGTVSISCQSNKSVYSNWLSWFQQKPGQPPKLLIYGASTLASGVPSRFKGSGSGTQFTLTVSDVQCDDAATYFCLGGYRDNSDNAFGGGTEVVVKG , which is 0.222
